experiment_summary: Volume of distribution in Sprague-Dawley rat at 5 mg/kg, iv by LC-MS/MS analysis
Type: ADME, organism-based
Design: dose 5 mg/kg, route intravenous
setup_conditions: in vivo
readout: Vd (L/kg)
Just the number in L/kg, nothing appended.

Requested read-out: Vd. Entry: "O=C(O)c1cccc(-c2cccc(CCSSCCc3cccc(-c4cccc(C(=O)O)c4)c3C(=O)O)c2C(=O)O)c1"
209

###

experiment_summary: Drug recovery in cynomolgus monkey serum protein binding experiment
setup_conditions: in vitro
readout: Drug recovery
Reply with the number, then its unit.

Requested read-out: Drug recovery. Entry: "O=C(O)c1cccc(-c2cccc(CCS)c2C(=O)O)c1"
80%

###

experiment_summary: Cmax in Sprague-Dawley rat at 30 mg/kg, po administered via gavage measured under fasted conditions by LC-MS/MS analysis
Type: ADME, organism-based
Set-up: dose 30 mg/kg, route oral
setup_conditions: in vivo
readout: Cmax (ng/mL)
Just the number in ng/mL, nothing appended.

Requested read-out: Cmax. Entry: "O=C(O)c1cccc(-c2cccc(CCS)c2C(=O)O)c1"
13000

###

experiment_summary: AUC(0 to infinity) in Sprague-Dawley rat at 10 mg/kg, po administered via gavage measured under fed conditions by LC-MS/MS analysis
Assay type: ADME, organism-based
Design: time infinity, dose 10 mg/kg, route oral
setup_conditions: plasma
readout: AUC(0-inf) (ng·h/mL)
Just the number in ng·h/mL, nothing appended.

Requested read-out: AUC(0-inf). Entry: "O=C(O)c1cccc(-c2cccc(CCS)c2C(=O)O)c1"
37100

###

experiment_summary: Tmax in Sprague-Dawley rat at 5 mg/kg, iv by LC-MS/MS analysis
Type: ADME, organism-based
Design: dose 5 mg/kg, route intravenous
setup_conditions: in vivo
readout: Tmax (min)
Just the number in min, nothing appended.

Requested read-out: Tmax. Entry: "O=C(O)c1cccc(-c2cccc(CCSSCCc3cccc(-c4cccc(C(=O)O)c4)c3C(=O)O)c2C(=O)O)c1"
6.6

###

experiment_summary: Volume of distribution in Sprague-Dawley rat at 1 mg/kg, iv administered as bolus injection measured under fasted conditions by LC-MS/MS analysis
Assay type: ADME, organism-based
Parameters: dose 1 mg/kg, route intravenous
setup_conditions: in vivo
readout: Vd (L/kg)
Just the number in L/kg, nothing appended.

Requested read-out: Vd. Entry: "O=C(O)c1cccc(-c2cccc(CCS)c2C(=O)O)c1"
0.21

###

experiment_summary: Clearance in Sprague-Dawley rat at 1 mg/kg, iv administered as bolus injection measured under fasted conditions by LC-MS/MS analysis
Assay type: ADME, organism-based
Parameters: dose 1 mg/kg, route intravenous
setup_conditions: in vivo
readout: clearance (mL/min/kg)
Just the number in mL/min/kg, nothing appended.

Requested read-out: clearance. Entry: "O=C(O)c1cccc(-c2cccc(CCS)c2C(=O)O)c1"
0.833

###

experiment_summary: Oral bioavailability in Sprague-Dawley rat at 1 mg/kg administered via gavage measured under fasted conditions by LC-MS/MS analysis
Type: ADME, organism-based
setup_conditions: in vivo
readout: bioavailability (%)
Just the number in %, nothing appended.

Requested read-out: bioavailability. Entry: "O=C(O)c1cccc(-c2cccc(CCS)c2C(=O)O)c1"
23.7

###

experiment_summary: Phase 1 metabolic stability in rat liver microsomes assessed as compound remaining at 10 uM measured for 1 hr by LC-MS/MS analysis
Type: ADME
setup_conditions: read-out: Stability
readout: remaining at 1 h, 10 µM

Requested read-out: remaining at 1 h, 10 µM. Entry: "O=C(O)c1cccc(-c2cccc(CCS)c2C(=O)O)c1"
> 90%
